Reference for the values: paper PMC12040169

assay: in vitro; conditions: human, hela cells, % viability
Endpoint: viability at 28.5 h, 10 µM (%)

>>> print(df.to_string())
                                   compound  unit_annotation  observed_value
0  COc1cccc(-c2cc(C(=O)N3CCC(C)CC3)n[nH]2)c1                %            94.3
1  COc1ccc(C(=O)NCC(=O)Nc2ccc(N3CCCCC3)cc2)cc1OC                %            94.3
2  COc1nccc(N2CCC3(CC(=O)NC3=O)C2)c1C#N (stereo not drawn)                %             108
3  CC(C)CN(Cc1ccc2c(c1)OCO2)C(=O)NCc1ccc(Cl)c(Cl)c1                %            95.3
4  Cc1ccc2oc([C@H]3CCN(Cc4ccc(C(=O)O)cc4)C3)nc2c1                %             100
5  Cn1c(COc2ccccc2)nnc1SCC(=O)c1cccc([N+](=O)[O-])c1                %             101
6  c1ccc(CN2CCN(c3nccnc3OCc3cccnc3)CC2)cc1 [CBK083129T]                %            91.3
7  Cc1c(C(=O)Nc2ccc(OCc3ccccc3F)cc2)sc2nc[nH]c(=O)c12                %            98.5
8       Cc1cc(C)n(C(=O)c2cn3cc(Cl)ccc3n2)n1                %            98.6
